# assay target: UniProt:P00743
# protocol description: Inhibition of bovine F10a at 250 uM
# Lookup of reported inhibition keyed by entry
assay endpoint: inhibition (%)

[
  {
    "molecule": "CC(=O)Nc1ccc(OP(=O)(Oc2ccc(NC(C)=O)cc2)C(Cc2ccc(NC(=N)N)cc2)NC(=O)[C@H](C)NC(=O)[C@@H](CO)NC(=O)OCc2ccccc2)cc1 (some centres undefined)",
    "value measured": 58
  },
  {
    "molecule": "C[C@H](NC(=O)[C@@H](CO)NC(=O)c1ccccc1)C(=O)NC(Cc1ccc(NC(=N)N)cc1)P(=O)(Oc1ccccc1)Oc1ccccc1 (some centres undefined)",
    "value measured": 45
  },
  {
    "molecule": "Cc1ccccc1C(=O)N[C@H](CO)C(=O)N[C@@H](C)C(=O)NC(Cc1ccc(NC(=N)N)cc1)P(=O)(Oc1ccccc1)Oc1ccccc1 (some centres undefined)",
    "value measured": 57
  },
  {
    "molecule": "C[C@H](NC(=O)[C@@H](CO)NS(=O)(=O)c1cccs1)C(=O)NC(Cc1ccc(NC(=N)N)cc1)P(=O)(Oc1ccccc1)Oc1ccccc1 (some centres undefined)",
    "value measured": 68
  }
]

* * *

Examples of molecules with documented log10 of IC50 follow.
# assay target: Tissue-type plasminogen activator (Homo sapiens, UniProt P00750)
# Sequence (P00750 whole entry): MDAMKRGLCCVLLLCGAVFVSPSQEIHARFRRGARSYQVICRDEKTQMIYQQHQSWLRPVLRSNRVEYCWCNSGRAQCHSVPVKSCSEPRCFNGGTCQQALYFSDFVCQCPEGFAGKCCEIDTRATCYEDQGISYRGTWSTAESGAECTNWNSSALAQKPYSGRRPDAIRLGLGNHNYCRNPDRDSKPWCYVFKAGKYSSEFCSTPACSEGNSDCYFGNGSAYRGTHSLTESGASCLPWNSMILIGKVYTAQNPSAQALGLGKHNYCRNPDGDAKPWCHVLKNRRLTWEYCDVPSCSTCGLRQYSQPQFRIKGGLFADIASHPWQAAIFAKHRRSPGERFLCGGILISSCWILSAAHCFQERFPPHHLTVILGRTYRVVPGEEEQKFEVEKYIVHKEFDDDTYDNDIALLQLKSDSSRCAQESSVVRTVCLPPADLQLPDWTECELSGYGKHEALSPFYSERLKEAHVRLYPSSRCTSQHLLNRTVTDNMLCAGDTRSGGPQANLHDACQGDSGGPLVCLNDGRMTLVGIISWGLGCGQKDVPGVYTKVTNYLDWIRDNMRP
# protocol description: Inhibition of recombinant tPA
assay endpoint: log10 of IC50 (log10 of the value in µM)

[
  {
    "molecule": "C[C@H](NC(=O)[C@@H](CO)NS(=O)(=O)c1ccc(Br)cc1)C(=O)NC(Cc1ccc(NC(=N)N)cc1)P(=O)(Oc1ccccc1)Oc1ccccc1 (stereo partly specified)",
    "value measured": 0.57
  },
  {
    "molecule": "C[C@H](NC(=O)[C@@H](CO)NS(=O)(=O)c1ccc(C#N)cc1)C(=O)NC(Cc1ccc(N=C(N)N)cc1)P(=O)(Oc1ccccc1)Oc1ccccc1 (stereo partly specified)",
    "value measured": 0.82
  },
  {
    "molecule": "COc1ccc(S(=O)(=O)N[C@H](CO)C(=O)N[C@@H](C)C(=O)NC(Cc2ccc(NC(=N)N)cc2)P(=O)(Oc2ccccc2)Oc2ccccc2)cc1 (stereo partly specified)",
    "value measured": 0.63
  },
  {
    "molecule": "C[C@H](NC(=O)[C@@H](CO)NS(=O)(=O)Cc1ccccc1)C(=O)NC(Cc1ccc(NC(=N)N)cc1)P(=O)(Oc1ccccc1)Oc1ccccc1 (stereo partly specified)",
    "value measured": -0.55
  },
  {
    "molecule": "Cc1ccc(C(=O)N[C@H](CO)C(=O)N[C@@H](C)C(=O)NC(Cc2ccc(NC(=N)N)cc2)P(=O)(Oc2ccccc2)Oc2ccccc2)cc1 (stereo partly specified)",
    "value measured": 1.20
  },
  {
    "molecule": "Cc1cccc(C(=O)N[C@H](CO)C(=O)N[C@@H](C)C(=O)NC(Cc2ccc(N=C(N)N)cc2)P(=O)(Oc2ccccc2)Oc2ccccc2)c1 (stereo partly specified)",
    "value measured": 1.26
  }
]

* * *

# assay target: Urokinase-type plasminogen activator (Homo sapiens)
# protocol description: Inhibition of human uPA
pIC50: −log10 of the molar value.
Here, each record is paired with measured pIC50 data.
assay endpoint: pIC50

[
  {
    "compound": "Cc1ccccc1C(=O)N[C@H](CO)C(=O)N[C@@H](C)C(=O)NC(Cc1ccc(NC(=N)N)cc1)P(=O)(Oc1ccccc1)Oc1ccccc1 (stereo partly drawn)",
    "assay endpoint": "pIC50",
    "value measured": 8.30
  },
  {
    "compound": "Cc1cccc(C)c1C(=O)N[C@H](CO)C(=O)N[C@@H](C)C(=O)NC(Cc1ccc(NC(=N)N)cc1)P(=O)(Oc1ccccc1)Oc1ccccc1 (stereo partly drawn)",
    "assay endpoint": "pIC50",
    "value measured": 8.22
  },
  {
    "compound": "C[C@H](NC(=O)[C@@H](CO)NS(=O)(=O)c1ccc(C#N)cc1)C(=O)NC(Cc1ccc(N=C(N)N)cc1)P(=O)(Oc1ccccc1)Oc1ccccc1 (stereo partly drawn)",
    "assay endpoint": "pIC50",
    "value measured": 8.21
  }
]

* * *

# assay target: Coagulation factor X (Bos taurus) (UniProt P00743)
# Sequence (P00743 41-180 limits assumed): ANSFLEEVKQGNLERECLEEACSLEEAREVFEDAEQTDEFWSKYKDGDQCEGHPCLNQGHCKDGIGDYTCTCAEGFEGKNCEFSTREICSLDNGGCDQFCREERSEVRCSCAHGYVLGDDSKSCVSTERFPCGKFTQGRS
# Sequence (P00743 234-492 limits assumed): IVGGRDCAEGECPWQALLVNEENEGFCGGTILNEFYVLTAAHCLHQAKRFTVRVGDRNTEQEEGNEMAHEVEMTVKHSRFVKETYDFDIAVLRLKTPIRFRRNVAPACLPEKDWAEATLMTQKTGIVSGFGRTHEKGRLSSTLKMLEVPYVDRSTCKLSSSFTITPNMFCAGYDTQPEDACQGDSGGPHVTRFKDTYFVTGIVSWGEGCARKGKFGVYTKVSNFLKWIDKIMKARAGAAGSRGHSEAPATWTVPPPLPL
# protocol description: Inhibition of bovine F10a at 250 uM

[
  {
    "compound": "Cc1cccc(C)c1C(=O)N[C@H](CO)C(=O)N[C@@H](C)C(=O)NC(Cc1ccc(NC(=N)N)cc1)P(=O)(Oc1ccccc1)Oc1ccccc1 (stereo partly specified)",
    "inhibition [%]": 62
  },
  {
    "compound": "Cc1ccc(C(=O)N[C@H](CO)C(=O)N[C@@H](C)C(=O)NC(Cc2ccc(NC(=N)N)cc2)P(=O)(Oc2ccccc2)Oc2ccccc2)cc1 (stereo partly specified)",
    "inhibition [%]": 53
  },
  {
    "compound": "C[C@H](NC(=O)[C@@H](CO)NS(=O)(=O)c1ccc(C#N)cc1)C(=O)NC(Cc1ccc(NC(=N)N)cc1)P(=O)(Oc1ccccc1)Oc1ccccc1 (stereo partly specified)",
    "inhibition [%]": 53
  },
  {
    "compound": "C[C@H](NC(=O)[C@@H](CO)NS(=O)(=O)c1ccccc1)C(=O)NC(Cc1ccc(NC(=N)N)cc1)P(=O)(Oc1ccccc1)Oc1ccccc1 (stereo partly specified)",
    "inhibition [%]": 64
  },
  {
    "compound": "C[C@H](NC(=O)[C@@H](CO)NC(=O)C1C2CC3CC(C2)CC1C3)C(=O)NC(Cc1ccc(NC(=N)N)cc1)P(=O)(Oc1ccccc1)Oc1ccccc1 (stereo partly specified)",
    "inhibition [%]": 62
  },
  {
    "compound": "Cc1cccc(C(=O)N[C@H](CO)C(=O)N[C@@H](C)C(=O)NC(Cc2ccc(NC(=N)N)cc2)P(=O)(Oc2ccccc2)Oc2ccccc2)c1 (stereo partly specified)",
    "inhibition [%]": 56
  }
]

* * *

Listing: Selectivity index of selected compounds
# Species: Homo sapiens
# protocol description: Selectivity index, IC50 for recombinant tPA/IC50 for human uPA
assay endpoint: Selectivity index

[
  {
    "compound": "C[C@H](NC(=O)[C@@H](CO)NC(=O)OCc1ccccc1)C(=O)NC(CCCN=C(N)N)P(=O)(Oc1ccccc1)Oc1ccccc1 (some centres undefined)",
    "assay endpoint": "Selectivity index",
    "value measured": 40
  },
  {
    "compound": "C[C@H](NC(=O)[C@@H](CO)NC(=O)OCc1ccccc1)C(=O)NC(Cc1ccc(NC(=N)N)cc1)P(=O)(Oc1ccccc1)Oc1ccccc1 (some centres undefined)",
    "assay endpoint": "Selectivity index",
    "value measured": 1000
  },
  {
    "compound": "C[C@H](NC(=O)[C@@H](CO)NS(=O)(=O)c1ccccc1)C(=O)NC(Cc1ccc(NC(=N)N)cc1)P(=O)(Oc1ccccc1)Oc1ccccc1 (some centres undefined)",
    "assay endpoint": "Selectivity index",
    "value measured": 1200
  },
  {
    "compound": "C[C@H](NC(=O)[C@@H](CO)NS(=O)(=O)c1ccc(Br)cc1)C(=O)NC(Cc1ccc(NC(=N)N)cc1)P(=O)(Oc1ccccc1)Oc1ccccc1 (some centres undefined)",
    "assay endpoint": "Selectivity index",
    "value measured": 560
  }
]

* * *

# Organism: Homo sapiens
# protocol description: Selectivity index, IC50 for human plasmin/IC50 for human uPA

[
  {
    "compound": "Cc1ccc(C(=O)N[C@H](CO)C(=O)N[C@@H](C)C(=O)NC(Cc2ccc(NC(=N)N)cc2)P(=O)(Oc2ccccc2)Oc2ccccc2)cc1 (some centres undefined)",
    "Selectivity index": 700
  },
  {
    "compound": "C[C@H](NC(=O)[C@@H](CO)NS(=O)(=O)Cc1ccccc1)C(=O)NC(Cc1ccc(NC(=N)N)cc1)P(=O)(Oc1ccccc1)Oc1ccccc1 (some centres undefined)",
    "Selectivity index": 11
  },
  {
    "compound": "C[C@H](NC(=O)[C@@H](CO)NC(=O)c1cccs1)C(=O)NC(Cc1ccc(NC(=N)N)cc1)P(=O)(Oc1ccccc1)Oc1ccccc1 (some centres undefined)",
    "Selectivity index": 1400
  },
  {
    "compound": "C[C@H](NC(=O)[C@@H](CO)NC(=O)c1ccccc1)C(=O)NC(Cc1ccc(NC(=N)N)cc1)P(=O)(Oc1ccccc1)Oc1ccccc1 (some centres undefined)",
    "Selectivity index": 3000
  }
]

* * *

# assay target: Thrombin and urokinase-type plasminogen activator (Homo sapiens) (UniProt P00734+P00749)
# protocol description: Selectivity index, IC50 for human thrombin/IC50 for human uPA
# Format: protein assay
Selectivity index: recorded values

[
  {
    "molecule": "C[C@H](NC(=O)[C@@H](CO)NC(=O)OCc1ccccc1)C(=O)NC(CCCN=C(N)N)P(=O)(Oc1ccccc1)Oc1ccccc1 (some centres undefined)",
    "Selectivity index": 8
  },
  {
    "molecule": "C[C@H](NC(=O)[C@@H](CO)NS(=O)(=O)c1cccc2ccccc12)C(=O)NC(Cc1ccc(NC(=N)N)cc1)P(=O)(Oc1ccccc1)Oc1ccccc1 (some centres undefined)",
    "Selectivity index": 1000
  },
  {
    "molecule": "C[C@H](NC(=O)[C@@H](CO)NS(=O)(=O)Cc1ccccc1)C(=O)NC(Cc1ccc(NC(=N)N)cc1)P(=O)(Oc1ccccc1)Oc1ccccc1 (some centres undefined)",
    "Selectivity index": 220
  },
  {
    "molecule": "CC(=O)Nc1ccc(OP(=O)(Oc2ccc(NC(C)=O)cc2)C(Cc2ccc(NC(=N)N)cc2)NC(=O)[C@H](C)NC(=O)[C@@H](CO)NC(=O)OCc2ccccc2)cc1 (some centres undefined)",
    "Selectivity index": 200
  },
  {
    "molecule": "C[C@H](NC(=O)[C@@H](CO)NC(=O)C1C2CC3CC(C2)CC1C3)C(=O)NC(Cc1ccc(NC(=N)N)cc1)P(=O)(Oc1ccccc1)Oc1ccccc1 (some centres undefined)",
    "Selectivity index": 750
  },
  {
    "molecule": "Cc1ccc(C(=O)N[C@H](CO)C(=O)N[C@@H](C)C(=O)NC(Cc2ccc(NC(=N)N)cc2)P(=O)(Oc2ccccc2)Oc2ccccc2)cc1 (some centres undefined)",
    "Selectivity index": 9600
  },
  {
    "molecule": "C[C@H](NC(=O)[C@@H](CO)NS(=O)(=O)c1cccs1)C(=O)NC(Cc1ccc(NC(=N)N)cc1)P(=O)(Oc1ccccc1)Oc1ccccc1 (some centres undefined)",
    "Selectivity index": 2800
  },
  {
    "molecule": "C[C@H](NC(=O)[C@@H](CO)NC(=O)c1cccs1)C(=O)NC(Cc1ccc(NC(=N)N)cc1)P(=O)(Oc1ccccc1)Oc1ccccc1 (some centres undefined)",
    "Selectivity index": 5000
  },
  {
    "molecule": "C[C@H](NC(=O)[C@@H](CO)NC(=O)OCc1ccccc1)C(=O)NC(Cc1ccc(NC(=N)N)cc1)P(=O)(Oc1ccccc1)Oc1ccccc1 (some centres undefined)",
    "Selectivity index": 4700
  },
  {
    "molecule": "Cc1ccccc1C(=O)N[C@H](CO)C(=O)N[C@@H](C)C(=O)NC(Cc1ccc(NC(=N)N)cc1)P(=O)(Oc1ccccc1)Oc1ccccc1 (some centres undefined)",
    "Selectivity index": 3200
  },
  {
    "molecule": "Cc1cccc(C)c1C(=O)N[C@H](CO)C(=O)N[C@@H](C)C(=O)NC(Cc1ccc(NC(=N)N)cc1)P(=O)(Oc1ccccc1)Oc1ccccc1 (some centres undefined)",
    "Selectivity index": 1000
  },
  {
    "molecule": "COc1ccc(S(=O)(=O)N[C@H](CO)C(=O)N[C@@H](C)C(=O)NC(Cc2ccc(NC(=N)N)cc2)P(=O)(Oc2ccccc2)Oc2ccccc2)cc1 (some centres undefined)",
    "Selectivity index": 288
  },
  {
    "molecule": "C[C@H](NC(=O)[C@@H](CO)NS(=O)(=O)c1ccccc1)C(=O)NC(Cc1ccc(NC(=N)N)cc1)P(=O)(Oc1ccccc1)Oc1ccccc1 (some centres undefined)",
    "Selectivity index": 1900
  },
  {
    "molecule": "C[C@H](NC(=O)[C@@H](CO)NS(=O)(=O)c1ccc(Br)cc1)C(=O)NC(Cc1ccc(NC(=N)N)cc1)P(=O)(Oc1ccccc1)Oc1ccccc1 (some centres undefined)",
    "Selectivity index": 451
  }
]

The reported measurements were obtained from ChEMBL document CHEMBL1149362.
